# MEASUREMENT DESCRIPTION: Chemical stability in pH 7.4 phosphate buffered saline at 37 °C by LC-MS
# Type: physicochemical
PROPERTY NAME: half-life (days)

[I] Cl.Cl.N[C@@H](CSSC[C@H](N)C(=O)N1CCOCC1)C(=O)N1CCOCC1 [Compound 1a, L-Cystine bismorpholide]
[II] CN1CCN(C(=O)[C@@H](N)CSSC[C@H](N)C(=O)N2CCN(C)CC2)CC1.Cl.Cl.Cl.Cl [Compound 1b, L-cystine bis(N′-methylpiperazide)]
## Input I'm curious, which of these has a smaller half-life number: I or II ? Answer = label.
## Output I
